TEST TARGET: T1, human TMEM106B (human, UniProt Q9NUM4 2-274)
T1 construct: Full-length, on transiently transfected HEK293 cells, or natively expressed on HeLa, U251 and A549 cells; also called huTMEM106B; huTMEM
PROTOCOL DESCRIPTION: FACS HEK+huTMEM, 10 ug/ml;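 also: purified mouse IgG antibodies at 10 µg/ml bound to HEK293 cells transiently expressing human TMEM106B, measured by flow cytometry as median fluorescence intensity of propidium iodide negative live cells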
Listing: MFI of selected binders
I only need the number, thanks.

{"BINDER": "anti-TMEM106B antibody TM-21 (antibody, V domains shown) VH: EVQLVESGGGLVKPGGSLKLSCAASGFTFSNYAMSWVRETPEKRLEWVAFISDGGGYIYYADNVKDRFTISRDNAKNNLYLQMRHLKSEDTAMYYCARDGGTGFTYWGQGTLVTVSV VL: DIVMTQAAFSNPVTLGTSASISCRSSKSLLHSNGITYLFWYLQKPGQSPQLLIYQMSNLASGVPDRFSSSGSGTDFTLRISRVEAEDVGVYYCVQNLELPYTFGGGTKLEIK", "ASSAY READOUT": "MFI", "EXPERIMENTAL VALUE": 69400}

Query binder follows.
What measured MFI goes with anti-TMEM106B antibody TM-13 (antibody, V domains shown) VH: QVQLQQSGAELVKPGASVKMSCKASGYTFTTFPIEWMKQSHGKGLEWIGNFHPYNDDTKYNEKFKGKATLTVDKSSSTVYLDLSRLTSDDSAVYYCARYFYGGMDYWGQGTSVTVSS VL: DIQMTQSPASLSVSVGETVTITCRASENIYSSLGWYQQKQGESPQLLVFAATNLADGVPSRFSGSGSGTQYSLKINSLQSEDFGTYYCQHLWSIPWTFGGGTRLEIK ?
67500
